Target: RON (human) (Homo sapiens)
Sequence (Q04912 25-1400): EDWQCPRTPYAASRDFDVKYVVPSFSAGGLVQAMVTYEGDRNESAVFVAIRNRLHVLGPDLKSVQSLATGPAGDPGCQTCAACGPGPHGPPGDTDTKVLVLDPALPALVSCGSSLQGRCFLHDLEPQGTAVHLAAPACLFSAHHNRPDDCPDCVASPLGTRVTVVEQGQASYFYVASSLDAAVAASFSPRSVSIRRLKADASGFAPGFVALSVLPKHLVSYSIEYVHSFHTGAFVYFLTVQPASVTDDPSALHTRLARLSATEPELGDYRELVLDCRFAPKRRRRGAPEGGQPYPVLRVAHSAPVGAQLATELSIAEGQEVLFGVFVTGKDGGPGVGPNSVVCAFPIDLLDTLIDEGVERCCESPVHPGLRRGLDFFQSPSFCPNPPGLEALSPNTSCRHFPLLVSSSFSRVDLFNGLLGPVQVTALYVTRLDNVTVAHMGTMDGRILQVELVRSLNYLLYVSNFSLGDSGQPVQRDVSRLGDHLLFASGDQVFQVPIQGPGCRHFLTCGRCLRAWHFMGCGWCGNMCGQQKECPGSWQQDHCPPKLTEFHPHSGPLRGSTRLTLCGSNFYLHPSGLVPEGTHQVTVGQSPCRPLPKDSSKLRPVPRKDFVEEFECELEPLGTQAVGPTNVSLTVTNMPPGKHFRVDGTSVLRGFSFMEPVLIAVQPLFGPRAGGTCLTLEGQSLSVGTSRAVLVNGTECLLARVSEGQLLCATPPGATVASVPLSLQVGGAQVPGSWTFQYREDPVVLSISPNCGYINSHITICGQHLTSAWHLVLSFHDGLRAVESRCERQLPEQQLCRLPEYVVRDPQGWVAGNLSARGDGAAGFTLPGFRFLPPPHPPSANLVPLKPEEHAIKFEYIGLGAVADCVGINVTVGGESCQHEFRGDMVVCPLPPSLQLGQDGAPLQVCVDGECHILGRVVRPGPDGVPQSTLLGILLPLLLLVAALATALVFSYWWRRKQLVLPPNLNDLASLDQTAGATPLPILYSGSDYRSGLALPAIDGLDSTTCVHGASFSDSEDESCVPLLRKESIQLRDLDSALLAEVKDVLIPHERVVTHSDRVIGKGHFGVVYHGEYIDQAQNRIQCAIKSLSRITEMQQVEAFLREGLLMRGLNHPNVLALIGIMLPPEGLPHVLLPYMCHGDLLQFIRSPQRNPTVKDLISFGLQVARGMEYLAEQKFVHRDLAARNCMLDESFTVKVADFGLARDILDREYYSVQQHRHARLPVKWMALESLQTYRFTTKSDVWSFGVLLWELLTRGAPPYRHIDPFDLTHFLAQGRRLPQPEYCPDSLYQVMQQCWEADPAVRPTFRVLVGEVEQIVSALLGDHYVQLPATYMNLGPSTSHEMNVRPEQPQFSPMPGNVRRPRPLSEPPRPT
Assay: RON (human) AlphaScreen kinase assay, Km of ATP
Format: biochemical
Conditions: AlphaScreen, Km of ATP; read-out: RON biochemical IC50
pIC50: −log10 of the molar value.
readoutType: pIC50

molecule	target	val
C[C@@H]1CN(C(=O)c2ccc(-c3coc4c(O[C@H](C)c5c(Cl)ccc(F)c5Cl)c(N)ncc34)cc2)C[C@H](C)O1	RON (human) (Homo sapiens)	5.30 to 6.30
CC(Oc1c(N)ncc2c(-c3cnn(C4CCNCC4)c3)coc12)c1c(Cl)c(F)cc(OC2CCNCC2)c1Cl (stereo not shown)	RON (human) (Homo sapiens)	> 6.30
COCCNC(=O)c1ccc(-c2coc3c(O[C@H](C)c4c(Cl)ccc(F)c4Cl)c(N)ncc23)cc1	RON (human) (Homo sapiens)	5.30 to 6.30
C[C@@H](Oc1c(N)ncc2c(-c3ccc(C(=O)N(C)C)s3)coc12)c1c(Cl)ccc(F)c1Cl	RON (human) (Homo sapiens)	5.30 to 6.30
C[C@@H](Oc1c(N)ncc2c(-c3ccc(N4CCN(C(N)=O)CC4)nc3)coc12)c1c(Cl)ccc(F)c1Cl	RON (human) (Homo sapiens)	5.30 to 6.30
C[C@@H](Oc1c(N)ncc2c(C3=CCN(C(=O)[C@@H]4CCCNC4)CC3)coc12)c1c(Cl)ccc(F)c1Cl	RON (human) (Homo sapiens)	> 6.30
CC(Oc1c(N)ncc2c(-c3cnn(C4CCNCC4)c3)coc12)c1cc(F)cc(-c2ccn[nH]2)c1 (stereo not shown)	RON (human) (Homo sapiens)	5.30 to 6.30

====

Target: RON (human) (Homo sapiens)
Assay: RON (human) AlphaScreen kinase assay, Km of ATP
Assay type: biochemical
Conditions: AlphaScreen, Km of ATP; read-out: RON biochemical IC50
Experimental: Someone skilled in the art will appreciate that a variety of assay formats may be used to determine the activity of the compounds of this invention. For example, AlphaScreen (Amplified Luminescent Proximity Homogeneous Assay) technology was used with the kinases described below. […] Desired compound is added in a final concentration of 1% DMSO with control being vehicle of DMSO alone. […] The plates, incubated for 1 h, are read on an AlphaQuest plate reader.

compound	target	IC50
C[C@@H](Oc1c(N)ncc2c(-c3ccc(CN4CCNCC4)s3)coc12)c1c(Cl)ccc(F)c1Cl [Example 217]	RON (human) (Homo sapiens)	< 500 nM
C[C@@H](Oc1c(N)ncc2c(-c3cnn(C4CCNCC4)c3)c(C#CC(C)(C)O)oc12)c1c(Cl)ccc(F)c1Cl [Example 171]	RON (human) (Homo sapiens)	< 500 nM
CC(=O)c1ccc(-c2coc3c(O[C@H](C)c4c(Cl)ccc(F)c4Cl)c(N)ncc23)s1 [Example 114]	RON (human) (Homo sapiens)	500 to 5000 nM
C[C@@H](Oc1c(N)ncc2c(-c3cnc(N(C)C)nc3)coc12)c1c(Cl)ccc(F)c1Cl [Example 124]	RON (human) (Homo sapiens)	500 to 5000 nM
C[C@@H](Oc1c(N)ncc2c(-c3cnn(C4CCNCC4)c3)coc12)c1cccc(F)c1 [Example 337]	RON (human) (Homo sapiens)	500 to 5000 nM
CC(C)[C@@H](O)C(=O)N1CC=C(c2coc3c(O[C@H](C)c4c(Cl)ccc(F)c4Cl)c(N)ncc23)CC1 [Example 268]	RON (human) (Homo sapiens)	500 to 5000 nM
COCCCNC(=O)c1ccc(-c2coc3c(O[C@H](C)c4c(Cl)ccc(F)c4Cl)c(N)ncc23)cc1 [Example 286]	RON (human) (Homo sapiens)	500 to 5000 nM
